Tested system: PI3K alpha (Homo sapiens)
Construct: for the p110-a subunit (with a deletion of the first 20 amino acids) are generated; His tag (C); made in house; host or cells: baculovirus BV1075; Tn5 (Trichoplusia ni) or TiniPro insect cells
Sequence (P42336 with tags, fused parts or gaps limits assumed, species assumed): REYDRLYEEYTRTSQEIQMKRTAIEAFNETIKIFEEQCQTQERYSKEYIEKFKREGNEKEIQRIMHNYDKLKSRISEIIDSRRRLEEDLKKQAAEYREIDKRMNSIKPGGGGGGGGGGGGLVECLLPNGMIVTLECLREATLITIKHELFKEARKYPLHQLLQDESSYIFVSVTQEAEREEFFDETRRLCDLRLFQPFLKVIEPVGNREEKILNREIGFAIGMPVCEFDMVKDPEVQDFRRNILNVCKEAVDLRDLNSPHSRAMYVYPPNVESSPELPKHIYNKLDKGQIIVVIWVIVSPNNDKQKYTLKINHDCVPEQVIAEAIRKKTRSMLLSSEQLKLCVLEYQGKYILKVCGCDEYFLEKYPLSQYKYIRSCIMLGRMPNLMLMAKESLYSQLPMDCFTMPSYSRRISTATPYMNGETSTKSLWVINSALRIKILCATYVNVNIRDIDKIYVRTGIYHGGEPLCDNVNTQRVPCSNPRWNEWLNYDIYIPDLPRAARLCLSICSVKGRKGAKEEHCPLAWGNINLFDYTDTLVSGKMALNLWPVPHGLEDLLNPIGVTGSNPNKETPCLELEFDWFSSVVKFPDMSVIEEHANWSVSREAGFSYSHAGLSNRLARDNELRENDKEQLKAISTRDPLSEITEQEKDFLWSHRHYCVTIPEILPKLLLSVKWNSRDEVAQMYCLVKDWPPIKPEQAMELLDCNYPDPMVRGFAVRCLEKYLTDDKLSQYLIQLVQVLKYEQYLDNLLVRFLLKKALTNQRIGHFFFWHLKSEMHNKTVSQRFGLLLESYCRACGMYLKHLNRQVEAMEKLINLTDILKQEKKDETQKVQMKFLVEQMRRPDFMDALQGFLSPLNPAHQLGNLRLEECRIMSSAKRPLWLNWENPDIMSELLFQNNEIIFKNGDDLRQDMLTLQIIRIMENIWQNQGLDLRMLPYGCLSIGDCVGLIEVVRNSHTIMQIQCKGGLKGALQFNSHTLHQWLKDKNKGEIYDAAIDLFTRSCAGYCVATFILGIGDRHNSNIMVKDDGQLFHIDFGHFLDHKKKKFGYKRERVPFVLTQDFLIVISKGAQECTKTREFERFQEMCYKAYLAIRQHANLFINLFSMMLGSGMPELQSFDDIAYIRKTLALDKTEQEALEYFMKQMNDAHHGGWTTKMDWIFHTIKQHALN
Test details: Enzymatic PI3K alpha isoform inhibition (lipid kinase activity, Kinase-Glo)
Assay type: biochemical
Experimental parameters: enzymatic assay
Quantity name: IC50 (nM)

| Compound | IC50 (nM) |
| --- | --- |
| COc1ncc(-c2ccc3ncnc(-c4cncc(C(=O)N5CCN(C)C(C)(C)C5)c4)c3c2)cc1C(F)(F)F [Example 74] | 150 |

[a] COc1ccc(-c2ccc3ncnc(-c4cccc(C(=O)N5CCN(C)CC5)c4)c3c2)cc1C(F)(F)F [Example 20]
[b] CC1(C)CN(C(=O)c2cccc(-c3ncnc4ccc(-c5ccc(N)nc5)cc34)c2)CCO1 [Example 32]
Prompt: Smaller IC50 value, a vs b ? Pick one and reply with its label.
Completion: b
(b: 174 nM, a: 2480 nM)

* * *

Tested system: PI3K delta (Homo sapiens)
Construct: for the full-length p110-d subunit are generated and fused by overlapping PCR; His tag (C); made in house; host or cells: baculovirus BV1060; Tn5 (Trichoplusia ni) or TiniPro insect cells
Sequence (O00329 with tags, fused parts or gaps limits assumed, species assumed): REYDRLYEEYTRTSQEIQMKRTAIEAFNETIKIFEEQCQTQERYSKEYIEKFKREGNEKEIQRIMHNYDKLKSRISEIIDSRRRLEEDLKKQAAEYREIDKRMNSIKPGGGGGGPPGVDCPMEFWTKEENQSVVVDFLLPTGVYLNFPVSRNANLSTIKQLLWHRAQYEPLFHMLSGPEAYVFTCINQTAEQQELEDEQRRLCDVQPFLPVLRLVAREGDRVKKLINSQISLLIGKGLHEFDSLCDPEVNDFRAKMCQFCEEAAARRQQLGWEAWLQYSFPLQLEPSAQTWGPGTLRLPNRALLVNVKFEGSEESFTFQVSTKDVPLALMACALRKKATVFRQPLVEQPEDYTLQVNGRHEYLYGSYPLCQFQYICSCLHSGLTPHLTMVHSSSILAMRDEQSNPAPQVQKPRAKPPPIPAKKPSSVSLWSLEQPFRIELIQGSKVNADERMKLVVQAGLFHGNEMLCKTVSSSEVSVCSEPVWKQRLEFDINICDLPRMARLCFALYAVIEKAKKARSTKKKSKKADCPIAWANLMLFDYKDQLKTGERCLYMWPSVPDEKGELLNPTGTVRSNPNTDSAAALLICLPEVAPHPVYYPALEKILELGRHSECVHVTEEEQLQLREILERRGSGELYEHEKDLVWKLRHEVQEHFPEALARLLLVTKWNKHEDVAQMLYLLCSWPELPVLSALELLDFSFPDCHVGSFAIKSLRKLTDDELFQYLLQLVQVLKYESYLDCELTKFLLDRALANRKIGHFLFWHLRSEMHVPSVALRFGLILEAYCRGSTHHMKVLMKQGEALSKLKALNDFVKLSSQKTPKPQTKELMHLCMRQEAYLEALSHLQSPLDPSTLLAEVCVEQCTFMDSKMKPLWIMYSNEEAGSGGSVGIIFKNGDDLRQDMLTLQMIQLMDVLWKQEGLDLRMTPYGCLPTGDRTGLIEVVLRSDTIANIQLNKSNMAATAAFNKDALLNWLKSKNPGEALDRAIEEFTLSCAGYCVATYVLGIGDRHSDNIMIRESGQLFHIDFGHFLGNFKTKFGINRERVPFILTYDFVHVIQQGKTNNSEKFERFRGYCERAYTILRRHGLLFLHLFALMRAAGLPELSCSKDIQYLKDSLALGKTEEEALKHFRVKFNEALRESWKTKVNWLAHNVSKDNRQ
Test details: Enzymatic PI3K delta isoform inhibition (lipid kinase activity, Kinase-Glo)
Type: biochemical
Experimental parameters: enzymatic assay
Quantity name: IC50 (nM)

| Test smiles | Tested system | Reported value |
| --- | --- | --- |
| COc1ncc(-c2ccc3ncnc(-c4cccc(C(=O)N5CCOCC5)c4)c3c2)cc1C#N | PI3K delta (Homo sapiens) | 6.67 |
| COc1ccc(-c2ccc3ncnc(-c4cncc(C(=O)N5CCN(C(C)=O)CC5)c4)c3c2)cn1 | PI3K delta (Homo sapiens) | 7.5 |
| COc1cc(C(=O)N2CCN(C(C)=O)CC2)cc(-c2ncnc3ccc(-c4cnc(OC)c(C#N)c4)cc23)c1 | PI3K delta (Homo sapiens) | 7 |
| CCOc1ncc(-c2ccc3ncnc(-c4cccc(C(=O)N5CCN(C(C)=O)CC5)c4)c3c2)cn1 | PI3K delta (Homo sapiens) | 8.5 |
| COc1ncc(-c2ccc3ncnc(-c4cccc(C(=O)N5CCS(=O)(=O)CC5)c4)c3c2)cc1C#N | PI3K delta (Homo sapiens) | 9 |

* * *

Tested system: PI3K delta (Homo sapiens)
Construct: for the full-length p110-d subunit are generated and fused by overlapping PCR; His tag (C); made in house; host or cells: baculovirus BV1060; Tn5 (Trichoplusia ni) or TiniPro insect cells
Test details: Enzymatic PI3K delta isoform inhibition (lipid kinase activity, Kinase-Glo)
Type: biochemical
Experimental parameters: enzymatic assay
Description: The components of the assay are added per well as follows: IC50 is determined by a four parameter curve fitting routine that comes along with “excel fit”. Yet alternatively, for an ATP depletion assay, compounds of the formula I to be tested are dissolved in DMSO and directly distributed into a white 384-well plate at 0.5 μl per well. […] The stopped reaction is incubated for 5 minutes and the remaining ATP is then detected via luminescence. IC50 values are then determined.
Quantity name: IC50 (nM)

# annotated cases, reported IC50 shown
| Test smiles | Reported value |
| --- | --- |
| COc1ccc(-c2ccc3ncnc(-c4cncc(C(=O)N5CCN(C)CC5)c4)c3c2)cc1C(F)(F)F | 5.5 |
| COc1ccc(-c2ccc3ncnc(-c4cncc(C(=O)N5CCNC[C@@H]5C)c4)c3c2)cc1C(F)(F)F | 9.5 |

[A] COc1ncc(-c2ccc3ncnc(-c4cc(C)cc(C(=O)N5CCN(C(C)=O)CC5)c4)c3c2)cc1C#N
[B] CC(=O)N1CCN(C(=O)c2cccc(-c3ncnc4ccc(-c5cc(C#N)c(N)c(C(F)(F)F)c5)cc34)c2)CC1
[C] COc1ncc(-c2ccc3ncnc(-c4cccc(C(=O)N5CCNCC5)c4)c3c2)cc1C#N
Prompt: Order these by IC50, descending, and give the full ranking. Answer format: the labels, ordered as requested.
Completion: B, A, C

[A] CCOc1ccc(-c2ccc3ncnc(-c4cccc(C(=O)N5CCN(C)CC5)c4)c3c2)cn1
[B] COc1ccc(-c2ccc3ncnc(-c4cc(F)cc(C(=O)N5CCN(C(C)=O)CC5)c4)c3c2)cn1
Prompt: Smaller IC50 value, A vs B ? Pick one and reply with its label.
Completion: B
(B: 8 nM, A: 12.5 nM)

[1] CN1CCN(C(=O)c2cccc(-c3ncnc4ccc(-c5ccc(N6CCCC6)nc5)cc34)c2)CC1
[2] CC1(C)CN(C(=O)c2cncc(-c3ncnc4ccc(-c5cncc(S(C)(=O)=O)c5)cc34)c2)CCO1
[3] CCC(=O)N1CCN(C(=O)c2cccc(-c3ncnc4ccc(-c5cnc(OC)c(C#N)c5)cc34)c2)CC1
Prompt: Order these by IC50, descending, and give the full ranking. Answer format: the labels, ordered as requested.
Completion: 1, 2, 3
(1: 17 nM, 2: 11 nM, 3: 6 nM)
